tested on: SK-OV-3 ovarian; assay: NCI-60 one-dose screen, 48 h (100 = growth as untreated, 0 = no growth, -100 = all killed); details: 10 µM unless noted
Compounds without any hit were thinned out: in the full panel of roughly 83,000, 20% have a hit.
Each entry below carries its recorded growth.
Answer format: numeric, % implied, no suffix.

Known results for compounds:
| compound | experimental_value |
| --- | --- |
| O=C(c1ccccc1)C(CN1CCOCC1)c1ccccc1 (stereo not drawn) | 91.6 |
| COc1cc(/C=N/Nc2ncnc3c2c(C)nn3-c2ccc(F)cc2)ccc1O | 99.2 |
| C=C(C)[C@@H]1CC[C@]2(C=O)CC[C@]3(C)[C@H](CC[C@@H]4[C@@]5(C)C/C(=C/c6cccnc6)C(=O)C(C)(C)[C@@H]5CC[C@]43C)[C@@H]12 | 117 |
| Cc1cc2nc3c4cc(O)ccc4n(CCN(C)C)c3nc2cc1C | -2.47 |
| c1cc(N2CCCC2)c2nc(-c3[nH]ncc3Nc3ncnc4[nH]ccc34)[nH]c2c1 | -8.07 |
| COc1ccc(C(=O)c2cc(OC)c(OC)c(OC)c2)cc1/C=C/C(=O)c1cc(OC)c(OC)c(OC)c1 | 105 |

growth recorded for this compound, Cc1ccc(-c2nc([P+](c3ccccc3)(c3ccccc3)c3ccccc3)c(N3C[C@H]4C[C@H](C3)c3cccc(=O)n3C4)o2)cc1 , is 123

growth recorded for this compound, O=C1NC(=Nc2ccc(S(=O)(=O)Nc3nccs3)cc2)S/C1=C\c1coc2ccccc2c1=O , is 91.5

growth recorded for this compound, N=c1c(S(=O)(=O)c2ccccc2)cc2c(=O)n3ccccc3nc2n1C1CCCC1 , is 104

growth recorded for this compound, CCC(=O)c1c(C)[nH]c(C)c1C , is 93

growth recorded for this compound, C=C(C)[C@@H]1CC[C@]2(CN)CC[C@]3(C)[C@H](CC[C@@H]4[C@@](C)(CCCN)[C@H](C(=C)C)CC[C@]43C)[C@@H]12 , is 107

growth recorded for this compound, CC(C)C[C@@H](NC(=O)[C@@H](Cc1ccccc1)NC(=O)c1cnccn1)B1O[C@H]2[C@H](O)[C@@H](C(=O)NCCCC[C@@H]3NC(=O)[C@@H](Cc4ccccc4)NC(=O)[C@H](CC(=O)O)NC(=O)CNC(=O)[C@H](CCCN=C(N)N)NC3=O)O[C@@H](CN)[C@H]2O1 , is -42.2

growth recorded for this compound, CC(C)=CCC/C(C)=C/CC/C(C)=C/CC/C(C)=C/CSC[C@H](NC(=O)CCCCCN1CCN(C)CC1)C(=O)NC1CCCCC1 , is 96.5

growth recorded for this compound, Cn1cc(-c2nc(-c3c[nH]c4ncccc34)cs2)c2cc(Cl)ccc21 , is 71.7

growth recorded for this compound, NC(=O)NCC1CCCCC1 , is 109

* * *

test system: 786-0 renal; assay: NCI-60 one-dose screen, 48 h (100 = growth as untreated, 0 = no growth, -100 = all killed); settings: 10 µM unless noted
Compounds without any hit were thinned out: in the full panel of roughly 83,000, 20% have a hit.
Each entry below carries its recorded growth.
Answer format: numeric, % implied, no suffix.

Known results for compounds:
| compound_string | measurement_units | growth |
| --- | --- | --- |
| COc1cnc2c(c1)C(=O)c1c-2n(CCCNC(C)C)c(=O)c2cc([N+](=O)[O-])ccc12 | % | -88.2 |
| Fc1ccc(Nc2nnc(-c3ccc(Cl)cc3)o2)cc1 | % | 104 |
| N#Cc1cnc2cc(OC[C@@H](O)CO)c(NC(=O)CC3CSSC3)cc2c1Nc1ccc(OCc2cccc(F)c2)c(Cl)c1 | % | -31.4 |
| O=C(N/N=C\c1ccccc1O)C1CC1 | % | 105 |

growth recorded for this compound, O=c1c(CNc2ccc(S(=O)(=O)Nc3nccs3)cc2)coc2ccccc12 , is 103

growth recorded for this compound, COc1cc(-c2cc3ncccc3c3nc(N)c4cccnc4c23)cc(OC)c1OC , is 12.9

growth recorded for this compound, CC1(C)C(=O)CC[C@]2(C)[C@H]3C(=O)C=C4[C@@H]5C[C@@](C)(C(=O)NCCNCCN)CC[C@]5(C)CC[C@@]4(C)[C@]3(C)CC[C@@H]12 , is 99.9

growth recorded for this compound, CC(=O)O[C@H]1CC[C@]2(C)[C@H]3CC=C4[C@@H]5[C@H](C)[C@@H](C)CC[C@]5(C(=O)NCCNCCNCCN)CC[C@@]4(C)[C@]3(C)CC[C@H]2C1(C)C , is 84.5
